Recorded IC50 by entry
Target: KRAS G12D (Homo sapiens, UniProt P01116+P62937, G12D)
Sequence (P01116 1-169 isoform P01116-2 G12D limits assumed): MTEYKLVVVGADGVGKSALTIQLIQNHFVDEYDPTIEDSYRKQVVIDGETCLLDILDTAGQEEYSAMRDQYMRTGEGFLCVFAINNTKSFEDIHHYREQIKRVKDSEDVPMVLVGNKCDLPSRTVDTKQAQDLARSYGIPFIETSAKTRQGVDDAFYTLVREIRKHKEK
Sequence (P62937 whole entry): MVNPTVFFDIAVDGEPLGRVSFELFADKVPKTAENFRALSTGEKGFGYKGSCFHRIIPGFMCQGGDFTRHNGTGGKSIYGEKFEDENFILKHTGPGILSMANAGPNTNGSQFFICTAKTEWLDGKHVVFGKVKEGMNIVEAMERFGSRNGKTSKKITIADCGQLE
Assay: Ras-Raf disruption / FRET / MOA assay (BRAF RBD)
Assay type: biochemical
Details: Ras-Raf disruption, with Cyclophilin A; read-out: KRAS G12D FRET data IC50

- COMPOUND: "CCn1c(-c2cccnc2[C@H](C)OC)c2c3cc(ccc31)-c1cc(O)cc(c1)C[C@H](NC(=O)[C@H](C(C)C)N1CC[C@]3(CCN(C(=O)[C@@H]4N[C@@H]4C4CC4)C3)C1=O)C(=O)N1CCC[C@H](N1)C(=O)OCC(C)(C)C2"
  IC50: "< 10 nM"
- COMPOUND: "CCn1c(-c2cccnc2[C@H](C)OC)c2c3cc(ccc31)-c1cc(O)cc(c1)C[C@H](NC(=O)[C@H](C(C)C)N(C)C(=O)N(C)C1CN(C(=O)[C@H]3CN3)C1)C(=O)N1CCC[C@H](N1)C(=O)OCC(C)(C)C2 (atropisomer, axis not shown)"
  IC50: "100 to 1000 nM"
- COMPOUND: "CCn1c(-c2cccnc2[C@H](C)OC)c2c3cc(ccc31)-c1cc(O)cc(c1)C[C@H](NC(=O)[C@H](C(C)C)N(C)C(=O)N1CCCN(C(=O)[C@H]3CN3)CC1)C(=O)N1CCC[C@H](N1)C(=O)OCC(C)(C)C2 (atropisomer, axis not shown)"
  IC50: "100 to 1000 nM"
- COMPOUND: "CCn1c(-c2cnccc2COC)c2c3cc(ccc31)-c1cccc(c1)C[C@H](NC(=O)[C@H](C(C)C)N(C)C(=O)CCN=C=NCc1c(OC)cccc1OC)C(=O)N1CCC[C@H](N1)C(=O)OCC(C)(C)C2"
  IC50: "1000 to 10000 nM"
